Values compiled from the kinase profiling compilation of Christmann-Franck et al. (2016).

molecular target: CDKL1 (human) (UniProt Q00532); experiment: KINOMEscan competition binding; details: compound 10.0 µM
Sequence (Q00532 whole entry, looked up): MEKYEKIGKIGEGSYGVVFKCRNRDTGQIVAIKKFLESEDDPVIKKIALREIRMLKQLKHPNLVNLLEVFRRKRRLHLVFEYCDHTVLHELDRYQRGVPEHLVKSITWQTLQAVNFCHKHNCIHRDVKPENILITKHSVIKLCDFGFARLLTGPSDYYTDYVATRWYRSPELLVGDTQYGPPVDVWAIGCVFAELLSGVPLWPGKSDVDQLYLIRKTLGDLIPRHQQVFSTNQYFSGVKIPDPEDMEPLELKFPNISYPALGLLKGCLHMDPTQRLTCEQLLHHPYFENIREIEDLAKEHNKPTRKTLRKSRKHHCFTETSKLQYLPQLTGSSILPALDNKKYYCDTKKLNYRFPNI
Property measured: per cent of control (%)
State the answer as a number, implicitly in %.

Known results for compounds:
Cpd smiles	Target	Unit symbol	per cent of control
COC(=O)Nc1ccc(-c2nc(N3CCOCC3)c3cnn(C4CCN(C(=O)OC)CC4)c3n2)cc1	CDKL1 (human) (UniProt Q00532)	%	91
COc1ccc(-c2ccc3c(N4CCOCC4)nc(N4C[C@@H](C)O[C@@H](C)C4)nc3n2)cc1CO	CDKL1 (human) (UniProt Q00532)	%	100
CCC(=O)N1CCN(c2ccc(-n3c(=O)ccc4cnc5ccc(-c6cnc7ccccc7c6)cc5c43)cc2C(F)(F)F)CC1	CDKL1 (human) (UniProt Q00532)	%	100

Please give the documented per cent of control of CC(C)n1nc(-c2cc3cc(O)ccc3[nH]2)c2c(N)ncnc21
100

---

target: PDGFRA (human) (UniProt P16234); experiment: KINOMEscan competition binding; details: compound 10.0 µM
Sequence (P16234 whole entry, looked up): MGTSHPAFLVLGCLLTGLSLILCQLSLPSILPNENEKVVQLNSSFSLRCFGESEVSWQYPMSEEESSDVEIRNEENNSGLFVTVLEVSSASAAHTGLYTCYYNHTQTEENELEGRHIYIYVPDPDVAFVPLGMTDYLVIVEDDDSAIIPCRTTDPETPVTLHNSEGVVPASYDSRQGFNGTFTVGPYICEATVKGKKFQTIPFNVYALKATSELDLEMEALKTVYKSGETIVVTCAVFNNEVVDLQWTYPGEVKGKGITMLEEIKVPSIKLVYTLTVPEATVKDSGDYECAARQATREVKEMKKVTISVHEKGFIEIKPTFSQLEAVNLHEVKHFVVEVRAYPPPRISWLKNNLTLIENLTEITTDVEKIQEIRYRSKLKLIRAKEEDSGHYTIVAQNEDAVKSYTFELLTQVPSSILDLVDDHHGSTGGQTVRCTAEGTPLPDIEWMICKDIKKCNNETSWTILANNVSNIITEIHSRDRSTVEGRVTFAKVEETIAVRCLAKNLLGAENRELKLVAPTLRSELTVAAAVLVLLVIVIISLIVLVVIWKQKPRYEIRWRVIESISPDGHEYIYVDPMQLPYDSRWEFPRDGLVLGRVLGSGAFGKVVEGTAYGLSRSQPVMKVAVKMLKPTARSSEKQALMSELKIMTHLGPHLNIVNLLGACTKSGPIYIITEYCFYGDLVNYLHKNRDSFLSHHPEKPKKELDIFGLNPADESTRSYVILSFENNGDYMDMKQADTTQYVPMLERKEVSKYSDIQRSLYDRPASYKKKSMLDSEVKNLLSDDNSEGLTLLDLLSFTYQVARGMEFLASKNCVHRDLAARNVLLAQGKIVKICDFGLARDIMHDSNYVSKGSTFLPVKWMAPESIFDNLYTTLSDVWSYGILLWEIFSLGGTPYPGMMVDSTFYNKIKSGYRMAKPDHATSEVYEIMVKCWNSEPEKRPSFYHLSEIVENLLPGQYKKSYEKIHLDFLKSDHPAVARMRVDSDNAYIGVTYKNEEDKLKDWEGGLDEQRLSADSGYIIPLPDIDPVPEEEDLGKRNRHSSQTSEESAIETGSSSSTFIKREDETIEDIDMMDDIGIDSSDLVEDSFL
Below, each entry is listed with its recorded kinase still bound, per cent of control.
Quick note: unit goes after the number.

Worked cases, answers included:
Cpd smiles	kinase still bound, per cent of control
COC(=O)Nc1ccc(-c2nc(N3CCOCC3)c3cnn(C4CCN(C(=O)OC)CC4)c3n2)cc1	92%
CCC(=O)N1CCN(c2ccc(-n3c(=O)ccc4cnc5ccc(-c6cnc7ccccc7c6)cc5c43)cc2C(F)(F)F)CC1	63%
CC(C)n1nc(-c2cc3cc(O)ccc3[nH]2)c2c(N)ncnc21	2.2%

Retrieve kinase still bound, per cent of control measured for COc1ccc(-c2ccc3c(N4CCOCC4)nc(N4C[C@@H](C)O[C@@H](C)C4)nc3n2)cc1CO and print it.
94%

---

molecular target: PAK6 (human) (UniProt Q9NQU5); conditions: compound 10.0 µM
Sequence (Q9NQU5 whole entry, looked up): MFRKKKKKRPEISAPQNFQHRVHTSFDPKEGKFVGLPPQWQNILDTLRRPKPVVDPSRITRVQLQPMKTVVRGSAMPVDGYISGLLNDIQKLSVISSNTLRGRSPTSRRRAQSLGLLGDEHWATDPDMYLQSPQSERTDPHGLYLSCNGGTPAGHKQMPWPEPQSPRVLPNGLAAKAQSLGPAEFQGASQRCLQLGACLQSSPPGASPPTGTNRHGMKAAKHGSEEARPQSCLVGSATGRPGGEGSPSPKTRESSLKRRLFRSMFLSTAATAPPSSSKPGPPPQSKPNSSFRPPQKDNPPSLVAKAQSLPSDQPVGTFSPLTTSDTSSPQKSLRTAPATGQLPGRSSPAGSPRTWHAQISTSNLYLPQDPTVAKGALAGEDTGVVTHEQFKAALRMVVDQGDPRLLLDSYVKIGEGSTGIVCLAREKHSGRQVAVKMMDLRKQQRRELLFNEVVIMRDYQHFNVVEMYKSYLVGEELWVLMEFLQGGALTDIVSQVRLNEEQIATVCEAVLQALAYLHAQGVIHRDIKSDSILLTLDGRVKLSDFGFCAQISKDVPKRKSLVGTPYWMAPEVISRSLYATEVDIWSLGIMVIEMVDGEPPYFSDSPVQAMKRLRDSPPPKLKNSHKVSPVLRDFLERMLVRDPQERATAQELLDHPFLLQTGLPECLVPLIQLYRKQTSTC
Property measured: per cent of control

Answered examples (3):
Cpd smiles	Property measured	Value
CC(C)n1nc(-c2cc3cc(O)ccc3[nH]2)c2c(N)ncnc21	per cent of control	38%
CCC(=O)N1CCN(c2ccc(-n3c(=O)ccc4cnc5ccc(-c6cnc7ccccc7c6)cc5c43)cc2C(F)(F)F)CC1	per cent of control	80%
COc1ccc(-c2ccc3c(N4CCOCC4)nc(N4C[C@@H](C)O[C@@H](C)C4)nc3n2)cc1CO	per cent of control	100%

Attention now shifts to the item below.
Answer with the recorded per cent of control for the molecule listed here: COC(=O)Nc1ccc(-c2nc(N3CCOCC3)c3cnn(C4CCN(C(=O)OC)CC4)c3n2)cc1
90%

---

per cent of control values for the molecules below.
biological target: CDKL3 (human) (UniProt Q8IVW4); test: KINOMEscan competition binding; settings: compound 10.0 µM
Sequence (Q8IVW4 whole entry, looked up): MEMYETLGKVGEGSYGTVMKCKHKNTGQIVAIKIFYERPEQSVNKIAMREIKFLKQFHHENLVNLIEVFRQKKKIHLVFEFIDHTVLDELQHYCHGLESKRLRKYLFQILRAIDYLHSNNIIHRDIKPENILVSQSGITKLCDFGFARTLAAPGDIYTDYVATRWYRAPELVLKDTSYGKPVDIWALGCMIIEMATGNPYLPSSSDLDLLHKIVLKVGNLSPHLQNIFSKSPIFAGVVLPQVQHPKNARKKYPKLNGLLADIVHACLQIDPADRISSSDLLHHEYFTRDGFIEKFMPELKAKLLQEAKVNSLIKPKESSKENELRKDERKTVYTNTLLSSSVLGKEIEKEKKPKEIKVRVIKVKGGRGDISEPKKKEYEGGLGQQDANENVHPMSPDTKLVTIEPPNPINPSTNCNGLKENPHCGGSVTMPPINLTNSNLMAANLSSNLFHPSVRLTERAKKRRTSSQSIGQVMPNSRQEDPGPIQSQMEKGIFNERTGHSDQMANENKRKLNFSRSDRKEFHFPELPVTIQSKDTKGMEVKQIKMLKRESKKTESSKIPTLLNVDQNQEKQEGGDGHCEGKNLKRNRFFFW
Give your result in % as a bare value.

Cpd smiles	Target	Unit symbol	per cent of control
CCC(=O)N1CCN(c2ccc(-n3c(=O)ccc4cnc5ccc(-c6cnc7ccccc7c6)cc5c43)cc2C(F)(F)F)CC1	CDKL3 (human) (UniProt Q8IVW4)	%	92

Give me measured per cent of control, please, for this molecule: CC(C)n1nc(-c2cc3cc(O)ccc3[nH]2)c2c(N)ncnc21
100

Please indicate per cent of control recorded for COC(=O)Nc1ccc(-c2nc(N3CCOCC3)c3cnn(C4CCN(C(=O)OC)CC4)c3n2)cc1
64

Indicate its recorded per cent of control; the molecule in question is COc1ccc(-c2ccc3c(N4CCOCC4)nc(N4C[C@@H](C)O[C@@H](C)C4)nc3n2)cc1CO
90
